Below is a list of entries, each paired with its recorded melting point value.

{"Molecule": "CCCCCCCCCCCCCCCCCNC(=O)OCC(CO)Oc1cc(C)on1 (stereo not given)", "Recorded Value": "77 to 79 °C"}
{"Molecule": "CN1CCCC1c1ccc(CCNC(=O)c2ccc(Br)cc2)cc1 (stereo not given)", "Recorded Value": "133 to 134 °C"}
{"Molecule": "CCc1ccc(OCC2CO2)cc1 (stereo not given)", "Recorded Value": "73.5 to 74.2 °C"}
{"Molecule": "O=c1c2c(Cc3ccc(F)cc3)n[nH]c2c2cccnc2n1-c1cccc(OC(F)(F)F)c1", "Recorded Value": "226 to 228 °C"}
{"Molecule": "CCc1cccc(C)c1CNc1nc(Br)cnc1N", "Recorded Value": "155 °C"}
{"Molecule": "Cn1cccc1C(=O)C(C#N)C(=O)Nc1ccc(F)cc1 (stereo not given)", "Recorded Value": "198 to 199 °C"}

IN: // query melting point value for entry O=C1N(Cc2ccc(Cl)s2)c2cccc(Cl)c2C12COc1cc3c(cc12)OCO3 (stereo not given)
OUT: 167 to 168 °C

IN: Requested read-out: melting point. Entry: CNC(=O)[C@@H](NC(=O)[C@@H](CC(=O)OCc1ccccc1)n1ccc(-c2ccncc2)c1)C(C)(C)C
OUT: 130 to 133 °C

IN: Requested field: melting point. Item: Cc1n[nH]c(-c2ccc(Br)cc2)c1NC(=O)c1ccccc1
OUT: 273 to 274 °C

IN: Data request, read-out melting point, for N#Cc1cc(F)c(N2CCN(Cc3cnc4c(c3)NC(=O)[C@@H]3CCCN43)CC2)cc1F
OUT: 224 to 227 °C
